Values were extracted from paper PMC2756588.

Target: T1, Fus1, P11710
T1 sequence (P11710 432-512, looked up): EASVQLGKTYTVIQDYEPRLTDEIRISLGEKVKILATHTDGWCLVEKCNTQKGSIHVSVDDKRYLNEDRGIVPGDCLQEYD
Experiment: SPOT array
Details: median of control spots 1200
This section presents binders with their documented SPOT intensity values.
Parameter: SPOT intensity

>>> recorded_number("GPPPPLPPPLFPSSS")
0
>>> recorded_number("LEFRAILFIPKRAPF")
87
>>> recorded_number("KNPRRQLQIPRQQPS")
0
>>> recorded_number("NMLKKKPLKKPLKRF")
36
